System: U2OS
Assay Details: Incucyte cell viability with U2OS; further: unitless GR value; below 1 slowed growth and below 0 cell loss
Type: toxicity, cell-based
Reported Conditions: human, 18 h, 10 µM, compound concentration 10 uM, replicate number 1, timepoint 18 hours
Property Label: Growth Rate

Example entries begin here.
Compound	Reported Result
Oc1c(CN2CCN(c3ccccn3)CC2)cc(Cl)c2cccnc12	-0.04
Cc1cc(NC(=O)NCCN2CCC(O)(Cc3ccccc3)CC2)c2ccccc2n1	0.73
Cc1ccc(C(C)(O)c2nc3ccccc3s2)c(C)c1 (centres undefined)	0.99

Answer with the recorded Growth Rate of `CC[C@H]1CN2CCc3cc(OC)c(OC)cc3[C@@H]2C[C@@H]1C[C@H]1NCCc2cc(OC)c(OC)cc21` only.
0.21

Dear colleague, please send me the reported Growth Rate for `OCCCNc1cc(-c2ccnc(Nc3cccc(Cl)c3)n2)ccn1` when you can.
0.26

Give the measured Growth Rate for `Brc1c(N=C2NCCN2)ccc2nccnc12.O=C(O)C(O)C(O)C(=O)O`
0.78

Specify Growth Rate for `CCNC(=O)[C@H]1O[C@@H](n2cnc3c(N)ncnc32)[C@H](O)[C@@H]1O.O` and stop.
0.71

Note down Growth Rate recorded for `CCC(=O)NCC[C@@H]1CCc2ccc3c(c21)CCO3`
0.88
